TEST SUMMARY: qHTS Assay for Lipid Storage Modulators in Drosophila S3 Cells
CONDITION DETAILS: BODIPY lipid droplet fluorescence, 18-24 h, cells fed with added oleic acid; series mostly up to 46.1 µM
Excerpt: NIH Molecular Libraries Probe Production Centers Network [MLPCN] NIH Chemical Genomics Center [NCGC] […] Triacsin C (Sigma-Aldrich T-4540), an inhibitor of long-chain fatty acyl CoA synthetase that blocks synthesis of triglycerides, was used as a positive control for lipid under-storage. […] Fluorescence was detected by excitation of the fluorophores with a 488-nm laser on an Acumen Explorer (TTP Lab Tech). […] Cells were detected using channel 3 (575-640 nm) with 5-um width and 100-um depth filters. […]
Hit rate of the full screen: of about 320,000 compounds, about 2,100 (0.66%) were called active. Inconclusive results (about 53%) are left out. Calls follow the shape of the dose curve; as a rule, active = well fitted inhibition curve with a large enough effect in the signal ratio, with a control signal flat (not every such curve was filed as active); inconclusive = small, poorly fitted or top-dose-only effect, or effect the other way, or a change in a side signal; inactive = flat fitted curve, though single readings scatter; the % refers to the signal ratio. What follows is part of a selection rich in actives, with near analogues and random picks from the rest.
Outcome field: choose from TRUE for active, FALSE for inactive

Below, 5 compounds whose answers are already recorded.
• Cc1c(C(=O)NCCCN2CCCC2=O)oc2ccc(S(=O)(=O)N3CCOCC3)cc12 = FALSE
• Cc1c(C(=O)NCc2ccc(F)cc2)oc2ccc(S(=O)(=O)N3CCOCC3)cc12 = FALSE
• O=C(COC(=O)c1ccc(S(=O)(=O)NCc2ccco2)cc1)NCC1CCCCC1 = TRUE
• COc1ccccc1CNC(=O)[C@@H]1CCCN1S(=O)(=O)c1ccc(Cl)cc1 = FALSE
• O=C(NCC(c1ccccc1)N1CCCC1)C1CCN(C(=O)Nc2ccccc2)CC1 (centres undefined) = FALSE

Please indicate how the test categorized COC(=O)C1Cc2c([nH]c3ccccc23)CN1C(C)=O (centres undefined) .
FALSE

What do you have for `COc1ccc(CN(Cc2ccc(OC)cc2)S(=O)(=O)c2ccc(-n3cnnn3)c(C)c2)cc1` ?
FALSE

What do you have for `Cc1c(C(=O)NCc2c(F)cc(F)cc2F)oc2ccc(S(=O)(=O)N3CCOCC3)cc12` ?
TRUE

What do you have for `Cc1ccc(S(=O)(=O)N2CCC(C(=O)Nc3ccccc3N3CCCC3)CC2)cc1` ?
FALSE

What do you have for `CSc1ccccc1NC(=O)C1=CC(c2cccs2)=NS(=O)(=O)N1C` ?
TRUE

What do you have for `Cc1ccc(-n2nnnc2SCCNS(=O)(=O)c2ccccc2)cc1C` ?
FALSE

What do you have for `COc1ccccc1CNC(=O)N1CCN(S(=O)(=O)c2ccc(Cl)cc2)CC1` ?
TRUE

What do you have for `Cc1ccc(CNC(=O)COC(=O)c2ccc(S(=O)(=O)NCc3ccco3)cc2)cc1` ?
FALSE

What do you have for Cc1cc(=O)n2nc(N3CCCC(C(=O)NCc4ccccc4)C3)sc2n1 (centres undefined) ?
FALSE

What do you have for Cc1cc(=O)n2nc(N3CCCC3C(=O)NCCCN3CC(C)CC(C)C3)sc2n1 (centres undefined) ?
TRUE

What do you have for `Cc1c(C(=O)NCCCN2CCOCC2)oc2ccc(S(=O)(=O)N3CCOCC3)cc12` ?
FALSE

What do you have for `Cc1ccc(S(=O)(=O)NNC(=O)c2csnn2)cc1` ?
FALSE

What do you have for `COc1ccc(CNS(=O)(=O)c2ccc(-n3cnnn3)c(C)c2)cc1` ?
TRUE

What do you have for `COc1cccc(-c2nc(=S)c3c(o2)CCCC3)c1` ?
FALSE

What do you have for `COc1ccc(CCc2cc(OC)cc(=O)o2)cc1` ?
FALSE

What do you have for `COc1ccc(CCNC(=O)C2CCN(c3nn4c(=O)cc(C)nc4s3)CC2)cc1OC` ?
FALSE

What do you have for `O=C(NCc1ccc(Cl)cc1)N1CCN(S(=O)(=O)c2ccccc2)CC1` ?
FALSE

What do you have for Cc1cc(=O)n2nc(N3CCCC(C(=O)N4CCN(C)CC4)C3)sc2n1 (centres undefined) ?
FALSE
